All figures here come from patent US10577363B2.

target: SMYD3 (Homo sapiens (Human)); assay: SMYD3 biochemical assay (SPA, 3H-SAM methylation of MEKK2 protein substrate); conditions: read-out: SMYD3 Biochem IC50 (μM)*
MEASURED ENDPOINT: IC50 (µM)

> print(dat)
                                   molecule  observed.result
1  C[C@@H]1CC(NC(=O)c2cc(C3CC3)on2)CCN1C(=O)C1CNCC(O)C1 (stereo partly shown) [compound 135]             2.49
2  C[C@@H]1C[C@@H](NC(=O)c2cc(C3CC3)on2)CCN1S(=O)(=O)CCCN [compound 209]              0.1
3  C[C@@H]1C[C@H](NC(=O)c2cc(C3CC3)on2)CCN1C(=O)C1CCCC(CN)C1 (stereo partly shown) [compound 342]            0.552
4  CC(C)CNc1ncccc1S(=O)(=O)N1CC[C@H](NC(=O)c2cc(C3CC3)on2)C[C@@H]1C [compound 474]             2.74

====

target: SMYD3 (Homo sapiens (Human), UniProt Q9H7B4); test: SMYD3 cell assay (Trimethyl-MEKK2 In-Cell Western in 293T/17 cells); assay type: cell-based; conditions: average of n = 1 to n = 50; read-out: SMYD3 Cell IC50
Sequence (Q9H7B4 whole entry): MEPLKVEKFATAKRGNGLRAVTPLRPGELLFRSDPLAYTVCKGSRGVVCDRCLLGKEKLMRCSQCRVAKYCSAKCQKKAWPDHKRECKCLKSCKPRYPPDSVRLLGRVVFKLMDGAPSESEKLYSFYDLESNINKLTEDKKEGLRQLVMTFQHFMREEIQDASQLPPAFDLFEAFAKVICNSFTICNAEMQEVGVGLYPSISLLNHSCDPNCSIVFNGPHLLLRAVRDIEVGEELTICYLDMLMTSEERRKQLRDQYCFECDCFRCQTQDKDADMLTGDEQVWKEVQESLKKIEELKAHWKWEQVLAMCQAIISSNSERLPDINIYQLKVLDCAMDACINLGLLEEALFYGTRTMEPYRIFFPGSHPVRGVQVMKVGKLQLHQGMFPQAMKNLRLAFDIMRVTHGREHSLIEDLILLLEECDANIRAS
Class assignment keyed on IC50, ranges low-valued = under 0.9 µM, mid-valued = from 0.9 µM up to 3 µM, high-valued = 3 µM and over

> print(dat)
                                    compound  group.label
 1  C[C@H]1C[C@@H](NC(=O)c2cc(C3CC3)on2)CCN1S(=O)(=O)N1CCNC(C)(C)C1   low-valued
 2  C[C@H]1C[C@@H](NC(=O)c2cc(C3CC3)on2)CCN1S(=O)(=O)N1CCNCC1Cc1ccccc1 (some centres unmarked)  high-valued
 3  C[C@@H]1C[C@H](NC(=O)c2cc(C3CC3)on2)CCN1S(=O)(=O)CCC(N)Cc1ccccc1 (some centres unmarked)  high-valued
 4  C[C@@H]1CN(S(=O)(=O)N2CC[C@H](NC(=O)c3cc(C4CC4)on3)C[C@@H]2C)C[C@H](C)N1C   mid-valued
 5  COCCCN1CCC(CS(=O)(=O)N2CC[C@@H](NC(=O)c3cc(C4CC4)on3)[C@@H](C)C2)CC1   low-valued
 6  CC(=O)NCc1ccc(S(=O)(=O)N2CC[C@H](NC(=O)c3cc(C4CC4)on3)C[C@@H]2C)cc1   mid-valued
 7  O=C(N[C@H]1CCN(S(=O)(=O)CC2CCN(CCCO)CC2)[C@@H](Cc2ccccc2)C1)c1cc(C2CC2)on1   mid-valued
 8  C[C@H]1C[C@@H](NC(=O)c2cc(C3CC3)on2)CCN1S(=O)(=O)N1CCN(C)C(C)(C)C1   low-valued
 9  O=C(N[C@@H]1C[C@H]2CCC[C@@H](C1)N2S(=O)(=O)c1cncc(F)c1)c1cc(C2CC2)on1   mid-valued
10  C[C@@H]1CN(S(=O)(=O)N2CC[C@H](NC(=O)c3cc(C4CC4)on3)C[C@@H]2C)CCN1   low-valued
11  NCCCNc1ncccc1S(=O)(=O)N1[C@@H]2CCC[C@H]1C[C@@H](NC(=O)c1cc(C3CC3)on1)C2  high-valued
12  C[C@H]1C[C@@H](NC(=O)c2cc(C3CC3)on2)CCN1S(=O)(=O)N1CCN[C@H](c2ccccc2)C1   mid-valued
13  CN1CCC(CS(=O)(=O)N2CC[C@H](NC(=O)c3cc(C4CC4)on3)C[C@@H]2Cc2ccccc2)CC1   mid-valued
